- target_or_test_system: T1, matriptase (Charles Craik, UCSF), recombinant (Homo sapiens (Human), UniProt Q9Y5Y6)
- T1 sequence: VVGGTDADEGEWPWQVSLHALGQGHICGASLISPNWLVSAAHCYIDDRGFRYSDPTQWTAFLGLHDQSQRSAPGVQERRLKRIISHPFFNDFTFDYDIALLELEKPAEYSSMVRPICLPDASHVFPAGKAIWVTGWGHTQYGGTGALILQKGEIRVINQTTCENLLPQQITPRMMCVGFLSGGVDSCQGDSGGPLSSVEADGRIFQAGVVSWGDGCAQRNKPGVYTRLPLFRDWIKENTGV
- assay_method_text: fluorogenic inhibition assay
*: point of attachment. kt = C-terminal ketothiazole, c1csc(*)n1
Threshold-based label: Ki under 9 nM gives condition met, Ki not under 9 nM gives condition not met.

[
  {
    "binder": "Ac-TKLR-kt (SMILES CC(=O)N[C@H](C(=O)N[C@@H](CCCCN)C(=O)N[C@@H](CC(C)C)C(=O)N[C@@H](CCCNC(=N)N)C(=O)c1nccs1)[C@@H](C)O) [Ac-TKLR(SEQ ID NO: 16)-kt]",
    "cat": "condition met"
  }
]

Ask | Hi there! Is Ki for Ac-SKLR-kt (SMILES CC(=O)N[C@@H](CO)C(=O)N[C@@H](CCCCN)C(=O)N[C@@H](CC(C)C)C(=O)N[C@@H](CCCNC(=N)N)C(=O)c1nccs1) [Ac-SKLR(SEQ ID NO: 10)-kt] below 9 nM, do you know?
Reply | condition not met

Ask | Hi there! Is Ki for Ac-SWLR-kt (SMILES CC(=O)N[C@@H](CO)C(=O)N[C@@H](Cc1c[nH]c2ccccc12)C(=O)N[C@@H](CC(C)C)C(=O)N[C@@H](CCCNC(=N)N)C(=O)c1nccs1) [Ac-SWLR(SEQ ID NO: 17)-kt] below 9 nM, do you know?
Reply | condition not met

Ask | Hi there! Is Ki for Ac-KRLR-kt (SMILES CC(=O)N[C@@H](CCCCN)C(=O)N[C@@H](CCCNC(=N)N)C(=O)N[C@@H](CC(C)C)C(=O)N[C@@H](CCCNC(=N)N)C(=O)c1nccs1) [Ac-KRLR(SEQ ID NO: 8)-kt] below 9 nM, do you know?
Reply | condition met

Ask | Hi there! Is Ki for Ac-RKLR-kt (SMILES CC(=O)N[C@@H](CCCNC(=N)N)C(=O)N[C@@H](CCCCN)C(=O)N[C@@H](CC(C)C)C(=O)N[C@@H](CCCNC(=N)N)C(=O)c1nccs1) [Ac-RKLR(SEQ ID NO: 18)-kt] below 9 nM, do you know?
Reply | condition met

Ask | Hi there! Is Ki for Ac-SKFR-kt (SMILES CC(=O)N[C@@H](CO)C(=O)N[C@@H](CCCCN)C(=O)N[C@@H](Cc1ccccc1)C(=O)N[C@@H](CCCNC(=N)N)C(=O)c1nccs1) [Ac-SKFR(SEQ ID NO: 13)-kt] below 9 nM, do you know?
Reply | condition met
